Test system: NCI-H226 lung
Test: NCI-60 one-dose screen, 48 h (100 = growth as untreated, 0 = no growth, -100 = all killed)
Conditions: 10 µM unless noted
About 83,000 compounds went through this panel and 20% of them were active in at least one assay; those are over-represented in the sample as a whole.
Rule: growth below 90% gives Criterion met. Equal to or above 90% gives Criterion not met.

smiles: OCc1cccnc1
assigned label: Criterion not met
--
smiles: N#C/C(=C\NC(=S)N=Nc1c(O)[nH]c2ccccc12)c1nc2ccccc2s1
assigned label: Criterion met
--
smiles: Cc1cc(C(=O)NN)c(C#N)c(=O)[nH]1
assigned label: Criterion not met

* * *

Tested on: NCI-H460 lung
Experiment: NCI-60 one-dose screen, 48 h
Conditions: 10 µM unless noted
Compounds without any hit were thinned out: in the full panel of roughly 83,000, 20% have a hit. The source made the active and inactive calls. Rule for the calls: active = growth percent below 10; inactive = the rest.
Labels: 1 = active, 0 = inactive

compound: CCOC(=O)CO
assayed system: NCI-H460 lung
assigned label: 0

compound: CC(=O)/C(C)=N\OC(=O)Nc1ccccc1
assayed system: NCI-H460 lung
assigned label: 0

compound: Cc1ccc2nc(-c3ccc(N=Cc4ccccc4O)cc3)sc2c1
assayed system: NCI-H460 lung
assigned label: 0

compound: OCCNc1ccccc1
assayed system: NCI-H460 lung
assigned label: 0

compound: OCC(O)COc1ccc(Cl)cc1Cl (centres undefined)
assayed system: NCI-H460 lung
assigned label: 0

compound: COc1ccc(C(=O)C(=O)c2ccccc2)cc1
assayed system: NCI-H460 lung
assigned label: 0

compound: Cc1cc(C)cc(OCC(=O)O)c1
assayed system: NCI-H460 lung
assigned label: 0

compound: O=Cc1ccc(O)c(O)c1
assayed system: NCI-H460 lung
assigned label: 0

compound: Cc1[nH]n(-c2ccccc2)c(=O)c1C=NC(=S)C(N)=S
assayed system: NCI-H460 lung
assigned label: 0

compound: Cc1c(-c2ccc(C3CCCCC3)cc2)nc2ccc(F)cc2c1C(=O)O
assayed system: NCI-H460 lung
assigned label: 1

compound: C=CCNC(=S)N/C=C(/C(=O)c1ccccc1)c1ccccc1
assayed system: NCI-H460 lung
assigned label: 0

compound: COc1cc(C(=O)NC(=S)NCc2ccncc2)cc(OC)c1OC
assayed system: NCI-H460 lung
assigned label: 0

compound: COc1cccc(C(=O)NNC(=O)c2cccc3ccccc23)c1
assayed system: NCI-H460 lung
assigned label: 0

compound: O=C(CCCl)OCCOc1ccccc1
assayed system: NCI-H460 lung
assigned label: 0

compound: C1C[S+]2CC[S+]1CC2
assayed system: NCI-H460 lung
assigned label: 0

compound: COc1ccc2c(c1)Nc1ccccc1S2
assayed system: NCI-H460 lung
assigned label: 0

compound: CCCCCC/C=C\CCCCCCCCCc1cc(O)cc(OC)c1O
assayed system: NCI-H460 lung
assigned label: 1

compound: NCC(O)C(O)C(O)C(O)CO (centres undefined)
assayed system: NCI-H460 lung
assigned label: 0

compound: Nc1cc2c(cc1Cl)C(=O)c1ccccc1C2=O
assayed system: NCI-H460 lung
assigned label: 1

compound: CC12CCC3c4ccc(O)cc4CCC3C1CCC2=O (centres undefined)
assayed system: NCI-H460 lung
assigned label: 0

compound: Nc1ncnc(Nc2ccc(C(F)(F)F)cc2)n1
assayed system: NCI-H460 lung
assigned label: 0

compound: CCOC(=O)c1c(C)[nH]c(C)c1C=O
assayed system: NCI-H460 lung
assigned label: 0

compound: C=CCC(OC(C)=O)c1ccc(C(C)C)cc1 (centres undefined)
assayed system: NCI-H460 lung
assigned label: 0

compound: COC(=O)Cc1cc(COC(C)=O)ccc1C
assayed system: NCI-H460 lung
assigned label: 0

compound: CC(C)C(=O)OCCOc1ccc(C(C)(C)C)cc1
assayed system: NCI-H460 lung
assigned label: 0

compound: CCOC(=O)CNC(=O)Sc1ccc(C(C)(C)C)cc1
assayed system: NCI-H460 lung
assigned label: 0

compound: Cc1[nH]nc(C(N)=O)c1[N+](=O)[O-]
assayed system: NCI-H460 lung
assigned label: 0

compound: Cc1c(Cl)cccc1N=C=S
assayed system: NCI-H460 lung
assigned label: 0

compound: COC(CCCl)c1ccc(Cl)cc1 (centres undefined)
assayed system: NCI-H460 lung
assigned label: 0
